# System: Streptococcus sp.
# PROCEDURE_DETAILS: In vitro antibacterial evaluation: minimum inhibitory concentration (MIC), broth dilution method
# Format: cell-based
# CONDITIONS_USED: broth dilution, 5×10^5 CFU/mL, 18 hours at 35° C.
MEASUREMENT_LABEL: MIC Streptococcus pneumonine (ATCC 6301)

MOLECULE	MEASURED_TARGET	MIC Streptococcus pneumonine (ATCC 6301)
CC(c1ccccc1)C1NC(=O)CNC(=O)C(CO)NC(=O)C(C(O)C2CNC(=N)N2C2OC(CO)C(O)C(O)C2O)NC(=O)C(C(O)C2CNC(=N)N2)NC(=O)C(Cc2ccc(OC3OC(CO)C(OC4OC5COC(CC6CCCCC6)OC5C(O)C4O)C(O)C3O)cc2)NC1=O (stereo not shown)	Streptococcus sp.	<0.06 µg/mL
CC(c1ccccc1)C1NC(=O)CNC(=O)C(CO)NC(=O)C(C(O)C2CNC(=N)N2C2OC(CO)C(O)C(O)C2O)NC(=O)C(C(O)C2CNC(=N)N2)NC(=O)C(Cc2ccc(OC3OC(CO)C(OC4OC5COC(Cc6ccc(F)cc6)OC5C(O)C4O)C(O)C3O)cc2)NC1=O (stereo not shown)	Streptococcus sp.	<0.06 µg/mL
CC(c1ccccc1)C1NC(=O)CNC(=O)C(CO)NC(=O)C(C(O)C2CNC(=N)N2C2OC(CO)C(O)C(O)C2O)NC(=O)C(C(O)C2CNC(=N)N2)NC(=O)C(Cc2ccc(OC3OC(CO)C(OC4OC5COC(CCc6ccccc6)OC5C(O)C4O)C(O)C3O)cc2)NC1=O (stereo not shown)	Streptococcus sp.	<0.06 µg/mL

Now for the molecule whose MIC Streptococcus pneumonine (ATCC 6301) we want.
Enquiry: Recorded MIC Streptococcus pneumonine (ATCC 6301) of CC(c1ccccc1)C1NC(=O)CNC(=O)C(CO)NC(=O)C(C(O)C2CNC(=N)N2C2OC(CO)C(O)C(O)C2O)NC(=O)C(C(O)C2CNC(=N)N2)NC(=O)C(Cc2ccc(OC3OC(CO)C(OC4OC5COC(C67CC8CC(CC(C8)C6)C7)OC5C(O)C4O)C(O)C3O)cc2)NC1=O (stereo not shown) , please.
Return: <0.12 µg/mL

----------
# Tested on: Streptococcus sp.
# PROCEDURE_DETAILS: In vitro antibacterial evaluation: minimum inhibitory concentration (MIC), broth dilution method
# Assay type: cell-based
# CONDITIONS_USED: broth dilution, inoculum 5×10^5 CFU/mL, 18 hours at 35° C.
The following compounds are shown together with reported MIC Streptococcus pneumoniae (GC 1894) values.

Consider the following illustrative entries.
COMPOUND	RESULT
CC(C)=CCN1CC(C(O)C2NC(=O)C(C(O)C3CNC(=N)N3)NC(=O)C(Cc3ccc(OC4OC(CO)C(OC5OC6COC7(OC6C(O)C5O)C5CC6CC(C5)CC7C6)C(O)C4O)cc3)NC(=O)C(C(C)c3ccccc3)NC(=O)CNC(=O)C(CO)NC2=O)N(C2OC(CO)C(O)C(O)C2O)C1=N (stereo not shown)	<0.12 µg/mL
CC(c1ccc(Cl)cc1)C1NC(=O)CNC(=O)C(CO)NC(=O)C(C(O)C2CNC(=N)N2C2OC(CO)C(O)C(O)C2O)NC(=O)C(C(O)C2CNC(=N)N2)NC(=O)C(Cc2ccc(OC3OC(CO)C(OC4OC5COC(c6ccccc6)OC5C(O)C4O)C(O)C3O)cc2)NC1=O (stereo not shown)	0.12 µg/mL
CC(C1CCCCC1)C1NC(=O)CNC(=O)C(CO)NC(=O)C(C(O)C2CNC(=N)N2C2OC(CO)C(O)C(O)C2O)NC(=O)C(C(O)C2CNC(=N)N2)NC(=O)C(Cc2ccc(OC3OC(CO)C(OC4OC5COC(c6ccccc6)OC5C(O)C4O)C(O)C3O)cc2)NC1=O (stereo not shown)	<0.12 µg/mL
N=C1NCC(C(O)C2NC(=O)C(Cc3ccc(OC4OC(CO)C(OC5OC6COC7(OC6C(O)C5O)C5CC6CC(C5)CC7C6)C(O)C4O)cc3)NC(=O)C(Cc3ccccc3)NC(=O)CNC(=O)C(CO)NC(=O)C(C(O)C3CNC(=N)N3C3OC(CO)C(O)C(O)C3O)NC2=O)N1 (stereo not shown)	<0.06 µg/mL
COc1ccc(COCC2OC(OC3C(CO)OC(Oc4ccc(CC5NC(=O)C(C(C)c6ccccc6)NC(=O)CNC(=O)C(CO)NC(=O)C(C(O)C6CNC(=N)N6C6OC(CO)C(O)C(O)C6O)NC(=O)C(C(O)C6CNC(=N)N6)NC5=O)cc4)C(O)C3O)C(O)C(O)C2O)cc1OCc1ccccc1 (stereo not shown)	<0.06 µg/mL
CCCOc1ccc(COCC2OC(OC3C(CO)OC(Oc4ccc(CC5NC(=O)C(C(C)c6ccccc6)NC(=O)CNC(=O)C(CO)NC(=O)C(C(O)C6CNC(=N)N6C6OC(CO)C(O)C(O)C6O)NC(=O)C(C(O)C6CNC(=N)N6)NC5=O)cc4)C(O)C3O)C(O)C(O)C2O)cc1 (stereo not shown)	<0.06 µg/mL

Switching to the query record.
Enquiry: Recorded MIC Streptococcus pneumoniae (GC 1894) for CC(c1ccccc1)C1NC(=O)CNC(=O)C(CO)NC(=O)C(C(O)C2CNC(=N)N2C2OC(CO)C(O)C(O)C2O)NC(=O)C(C(O)C2CNC(=N)N2)NC(=O)C(Cc2ccc(OC3OC(CO)C(OC4OC(COCC=Cc5ccccc5)C(O)C(O)C4O)C(O)C3O)cc2)NC1=O (stereo not shown) , please?
Return: 0.5 µg/mL

Just for reference, patent US8247211B2 is where these values come from.
